Data origin, for the record: ChEMBL document CHEMBL3120093

measurement notes: Half life in mouse at 5 mg/kg, iv after 24 hrs
Type: ADME, organism-based
Parameters: dose 5 mg/kg, route intravenous
condition summary: in vivo
# half-life values compiled below
readout type: half-life (h)

In [3]: df
Out[3]:
                         compound_structure  readout_type  number
0  CN(C)[C@@H](C(=O)N1CCC[C@H]1c1ncc(-c2ccc(-c3ccc(-c4cnc([C@@H]5CCCN5C(=O)[C@H]5CCCO5)[nH]4)cc3)cc2)[nH]1)c1ccccc1     half-life     7.8
1  COC(=O)N[C@@H](C(=O)N1CCC[C@H]1c1ncc(-c2ccc(-c3ccc(-c4cnc([C@@H]5CCCN5C(=O)[C@H]5CCCO5)[nH]4)cc3)cc2)[nH]1)c1ccccc1     half-life     2.9

* * *

# Papp values compiled below
measurement notes: Permeability of the compound at PH 7.4 by PAMPA
Type: ADME
condition summary: read-out: permeability

compound structure	Papp, ×10⁻⁶ cm/s
CC[C@H](NC(=O)OC)C(=O)N1CCC[C@H]1c1ncc(-c2ccc(-c3ccc(-c4cnc([C@@H]5CCCN5C(=O)[C@@H](c5ccccc5)N(CC)CC)[nH]4)cc3)cc2)[nH]1	36.3
COC(=O)N[C@@H](C)C(=O)N1CCC[C@H]1c1ncc(-c2ccc(-c3ccc(-c4cnc([C@@H]5CCCN5C(=O)[C@H](C)NC(=O)OC)[nH]4)cc3)cc2)[nH]1	20.7
O=C([C@@H](c1ccccc1)N1CCCCC1)N1CCC[C@H]1c1ncc(-c2ccc(-c3ccc(-c4cnc([C@@H]5CCCN5C(=O)[C@@H](c5ccccc5)N5CCCCC5)[nH]4)cc3)cc2)[nH]1	25.1
COC(=O)N[C@@H](C(=O)N1CCC[C@H]1c1ncc(-c2ccc(-c3ccc(-c4cnc([C@@H]5CCCN5C(=O)CNC(C)=O)[nH]4)cc3)cc2)[nH]1)c1ccccc1	1.2
COC(=O)N[C@@H](C(=O)N1CCC[C@H]1c1ncc(-c2ccc(-c3ncc(-c4cnc([C@@H]5CCCN5C(=O)[C@H](NC(=O)OC)c5ccccc5)[nH]4)cn3)cc2)[nH]1)c1ccccc1	18.6

* * *

measurement notes: AUC in dog at […], po after 24 hrs
Format: ADME, organism-based, Canis lupus familiaris
Design: time < 24 hr, dose 2.3 mg/kg, route oral
condition summary: plasma

compound structure	AUC at 24 h / µM·h
COC(=O)N[C@H](C(=O)N1CCC[C@H]1c1nc(-c2ccc(-c3ccc(-c4c[nH]c([C@@H]5CCCN5C(=O)[C@@H](NC(=O)OC)C(C)C)n4)cc3)cc2)c[nH]1)C(C)C	11

* * *

measurement notes: Oral bioavailability in rat at 5 mg/kg after 24 hrs
Assay type: ADME, organism-based
condition summary: in vivo
Class TRUE: bioavailability at least 4%. Class FALSE: bioavailability below 4%.

compound structure	assigned label
COC(=O)N[C@@H](C(=O)N1CCC[C@H]1c1ncc(-c2ccc(-c3ccc(-c4cnc([C@@H]5CCCN5C(=O)[C@H]5CCCO5)[nH]4)cc3)cc2)[nH]1)c1ccccc1	TRUE
COC(=O)N[C@@H](C(=O)N1CCC[C@H]1c1ncc(-c2ccc(-c3ncc(-c4cnc([C@@H]5CCCN5C(=O)[C@H](NC(=O)OC)c5ccccc5)[nH]4)cn3)cc2)[nH]1)c1ccccc1	FALSE
CC[C@H](NC(=O)OC)C(=O)N1CCC[C@H]1c1ncc(-c2ccc(-c3ccc(-c4cnc([C@@H]5CCCN5C(=O)[C@@H](c5ccccc5)N(CC)CC)[nH]4)cc3)cc2)[nH]1	TRUE
CCN(CC)[C@@H](C(=O)N1CCC[C@H]1c1ncc(-c2ccc(-c3ccc(-c4cnc([C@@H]5CCCN5C(=O)[C@H](C)NC(=O)OC)[nH]4)cc3)cc2)[nH]1)c1ccccc1	FALSE
COC(=O)N[C@H](C(=O)N1CCC[C@H]1c1nc(-c2ccc(-c3ccc(-c4c[nH]c([C@@H]5CCCN5C(=O)[C@@H](NC(=O)OC)C(C)C)n4)cc3)cc2)c[nH]1)C(C)C	TRUE

* * *

measurement notes: Clearance in mouse at 5 mg/kg, iv after 24 hrs
Assay type: ADME, organism-based
Parameters: dose 5 mg/kg, route intravenous
condition summary: in vivo
# clearance values compiled below
readout type: clearance (mL/min/kg)

>>> print(df.to_string())
                         compound_structure  number
0  CN(C)[C@@H](C(=O)N1CCC[C@H]1c1ncc(-c2ccc(-c3ccc(-c4cnc([C@@H]5CCCN5C(=O)[C@H]5CCCO5)[nH]4)cc3)cc2)[nH]1)c1ccccc1      18
1  COC(=O)N[C@@H](C(=O)N1CCC[C@H]1c1ncc(-c2ccc(-c3ccc(-c4cnc([C@@H]5CCCN5C(=O)[C@H]5CCCO5)[nH]4)cc3)cc2)[nH]1)c1ccccc1     5.3

* * *

measurement notes: Half life in rat at 2 mg/kg, iv after 24 hrs
Assay type: ADME, organism-based
Set-up: dose 2 mg/kg, route intravenous
condition summary: in vivo

compound structure	half-life / h
O=C([C@@H](c1ccccc1)N1CCCCC1)N1CCC[C@H]1c1ncc(-c2ccc(-c3ccc(-c4cnc([C@@H]5CCCN5C(=O)[C@@H](c5ccccc5)N5CCCCC5)[nH]4)cc3)cc2)[nH]1	7.7
COC(=O)N[C@@H](C(=O)N1CCC[C@H]1c1ncc(-c2ccc(-c3ccc(-c4cnc([C@@H]5CCCN5C(=O)[C@H]5CCCO5)[nH]4)cc3)cc2)[nH]1)c1ccccc1	6.9
CN(C)[C@@H](C(=O)N1CCC[C@H]1c1ncc(-c2ccc(-c3ccc(-c4cnc([C@@H]5CCCN5C(=O)[C@H]5CCCO5)[nH]4)cc3)cc2)[nH]1)c1ccccc1	14
COC(=O)N[C@@H](C(=O)N1CCC[C@H]1c1ncc(-c2ccc(-c3ncc(-c4cnc([C@@H]5CCCN5C(=O)[C@H](NC(=O)OC)c5ccccc5)[nH]4)cn3)cc2)[nH]1)c1ccccc1	1.7

* * *

# Papp values compiled below
measurement notes: Permeability of the compound at PH 7.4 by PAMPA
Format: ADME
condition summary: read-out: permeability

compound structure	unit spec	Papp
CC[C@H](NC(=O)OC)C(=O)N1CCC[C@H]1c1ncc(-c2ccc(-c3ccc(-c4cnc([C@@H]5CCCN5C(=O)[C@H](CC)NC(=O)OC)[nH]4)cc3)cc2)[nH]1	×10⁻⁶ cm/s	38.4
COC(=O)N[C@@H](C(=O)N1CCC[C@H]1c1ncc(-c2ccc(-c3ccc(-c4cnc([C@@H]5CCCN5C(=O)[C@H](NC(=O)OC)c5ccccc5)[nH]4)cn3)cc2)[nH]1)c1ccccc1	×10⁻⁶ cm/s	17.7
COC(=O)NCC(=O)N1CCC[C@H]1c1ncc(-c2ccc(-c3ccc(-c4cnc([C@@H]5CCCN5C(=O)[C@H](NC(=O)OC)c5ccccc5)[nH]4)cc3)cc2)[nH]1	×10⁻⁶ cm/s	16.4
O=C([C@@H](c1ccccc1)N1CCCC1)N1CCC[C@H]1c1ncc(-c2ccc(-c3ccc(-c4cnc([C@@H]5CCCN5C(=O)[C@@H](c5ccccc5)N5CCCC5)[nH]4)cc3)cc2)[nH]1	×10⁻⁶ cm/s	3.6
COC(=O)N[C@H](C(=O)N1CCC[C@H]1c1ncc(-c2ccc(-c3ccc(-c4cnc([C@@H]5CCCN5C(=O)[C@@H](NC(=O)OC)[C@@H](C)OC)[nH]4)cc3)cc2)[nH]1)[C@@H](C)OC	×10⁻⁶ cm/s	27.5

* * *

measurement notes: Permeability from apical to basolateral side of human Caco2 cells
Type: ADME, cell-based
condition summary: Caco-2, read-out: permeability
readout type: Papp A→B

                         compound_structure  readout_type            result
0  COC(=O)N[C@@H](C(=O)N1CCC[C@H]1c1ncc(-c2ccc(-c3ccc(-c4cnc([C@@H]5CCCN5C(=O)[C@H]5CCCO5)[nH]4)cc3)cc2)[nH]1)c1ccccc1      Papp A→B  < 1.5 ×10⁻⁶ cm/s

* * *

measurement notes: Clearance in rat at 2 mg/kg, iv after 24 hrs
Format: ADME, organism-based
Set-up: dose 2 mg/kg, route intravenous
condition summary: in vivo
# clearance values compiled below
readout type: clearance (mL/min/kg)

compound structure	number
COC(=O)N[C@@H](C(=O)N1CCC[C@H]1c1ncc(-c2ccc(-c3ncc(-c4cnc([C@@H]5CCCN5C(=O)[C@H](NC(=O)OC)c5ccccc5)[nH]4)cn3)cc2)[nH]1)c1ccccc1	36
CN(C)[C@@H](C(=O)N1CCC[C@H]1c1ncc(-c2ccc(-c3ccc(-c4cnc([C@@H]5CCCN5C(=O)[C@H]5CCCO5)[nH]4)cc3)cc2)[nH]1)c1ccccc1	57
O=C([C@@H](c1ccccc1)N1CCCCC1)N1CCC[C@H]1c1ncc(-c2ccc(-c3ccc(-c4cnc([C@@H]5CCCN5C(=O)[C@@H](c5ccccc5)N5CCCCC5)[nH]4)cc3)cc2)[nH]1	63
COC(=O)N[C@@H](C(=O)N1CCC[C@H]1c1ncc(-c2ccc(-c3ccc(-c4cnc([C@@H]5CCCN5C(=O)[C@H]5CCCO5)[nH]4)cc3)cc2)[nH]1)c1ccccc1	4.4
